Heads up, these molecules all have IC50 values measured for hBPGM (Homo sapiens (Human), UniProt P07738).
Property Measured: IC50

INSERT INTO assay_data (molecule, assay_result) VALUES
  ('Cc1nc(CNC(=O)C2CC2)sc1-c1cccc(-c2ccc(C(=O)O)c(O)c2)c1 [Example 276]', '0.48 µM'),
  ('COC(=O)NCc1nc(C)c(-c2csc(-c3ccc(C(=O)NS(=O)(=O)c4cccc(OCC(=O)O)c4)cc3)n2)s1 [Example 331]', '> 25 µM'),
  ('CC(=O)Nc1cccc(OCc2nc(C)c(-c3csc(-c4cc(O)c(C(=O)O)cc4F)n3)s2)n1 [Example 145]', '0.25 µM'),
  ('COC(=O)NCc1nc(C)c(-c2csc(-c3cc(O)c(C(=O)O)cc3Cl)n2)s1 [Example 211]', '0.1 µM');

Provenance of the data: patent US20230348450A1
